# reported melting point; entries follow

Input: What value of melting point has been recorded for this entry: `Cc1ncoc1-c1ncn2c1CN=C(c1ccccc1F)c1cc(C#C[Si](C)(C)C)ccc1-2`
Output: 209 to 211 °C

Input: What value of melting point has been recorded for this entry: `Brc1ccc2c(c1)C(c1ccccc1)=NCc1c(-c3cnco3)ncn1-2`
Output: 225 to 227 °C

Input: What value of melting point has been recorded for this entry: `C#Cc1ccc2c(c1)C(c1ccccn1)=NCc1c(-c3ocnc3C)ncn1-2`
Output: 209 to 211 °C

Input: What value of melting point has been recorded for this entry: `Cc1ncoc1-c1ncn2c1CN=C(c1ccccc1)c1cc(C#C[Si](C)(C)C)ccc1-2`
Output: 130 to 132 °C

Input: What value of melting point has been recorded for this entry: `Cc1ncoc1-c1ncn2c1CN=C(c1ccccn1)c1cc(Br)ccc1-2`
Output: 228 to 230 °C

Input: What value of melting point has been recorded for this entry: `Cc1ncoc1-c1ncn2c1CN=C(c1ccccc1)c1cc(Br)ccc1-2`
Output: 236 to 238 °C

Input: What value of melting point has been recorded for this entry: `C[Si](C)(C)C#Cc1ccc2c(c1)C(c1ccccn1)=NCc1c(-c3cnco3)ncn1-2`
Output: 208 to 210 °C

###

assay.comment: Single-dose pharmacokinetics and brain concentrations, IV and IP, rats
Assay type: in vivo, Sprague-Dawley rats
condition.notes: male, Sprague-Dawley, rat, brain, intraperitoneal; 10 mg/kg IP dose, 4 hour
Method: The single-dose pharmacokinetics were determined in femoral artery/vein cannulated Sprague-Dawley rats. The rats received a 1 mg/kg intravenous and 10 mg/kg oral gavage dose of compound. Blood samples were collected at 0.08 (IV only), 0.25, 0.5, 1, 2, 4, 8, 12, and 24 hours after initiation of compound administration. Plasma was obtained via centrifugation. Plasma samples were then analyzed by LC-MS, and pharmacokinetic parameters calculated using Watson (version 7.4; Thermo Fisher Scientific). […]
experimental.readout: concentration at 4 h (nM)
# unit: nM | format: bare number

Input: What value of concentration at 4 h has been recorded for this entry: `C#Cc1ccc2c(c1)C(c1ccccn1)=NCc1c(-c3cnco3)ncn1-2`
Output: 2050

###

assay.system: α3, β3, γ2 GABA A receptor (Homo sapiens, UniProt P18507+P34903)
Sequence (P34903 29-492): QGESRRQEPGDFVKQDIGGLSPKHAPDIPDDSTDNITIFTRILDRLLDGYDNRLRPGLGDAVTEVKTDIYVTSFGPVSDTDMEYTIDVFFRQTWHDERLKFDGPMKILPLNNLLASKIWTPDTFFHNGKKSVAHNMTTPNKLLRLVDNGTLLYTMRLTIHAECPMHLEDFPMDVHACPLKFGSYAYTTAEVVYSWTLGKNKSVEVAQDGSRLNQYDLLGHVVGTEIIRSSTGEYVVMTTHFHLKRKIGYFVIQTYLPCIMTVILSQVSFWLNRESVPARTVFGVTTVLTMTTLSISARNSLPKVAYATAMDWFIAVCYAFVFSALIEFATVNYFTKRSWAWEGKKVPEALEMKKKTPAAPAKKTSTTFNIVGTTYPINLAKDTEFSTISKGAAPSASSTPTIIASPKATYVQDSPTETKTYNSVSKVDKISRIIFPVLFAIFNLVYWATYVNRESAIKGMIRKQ
Sequence (P28472 26-473 partner): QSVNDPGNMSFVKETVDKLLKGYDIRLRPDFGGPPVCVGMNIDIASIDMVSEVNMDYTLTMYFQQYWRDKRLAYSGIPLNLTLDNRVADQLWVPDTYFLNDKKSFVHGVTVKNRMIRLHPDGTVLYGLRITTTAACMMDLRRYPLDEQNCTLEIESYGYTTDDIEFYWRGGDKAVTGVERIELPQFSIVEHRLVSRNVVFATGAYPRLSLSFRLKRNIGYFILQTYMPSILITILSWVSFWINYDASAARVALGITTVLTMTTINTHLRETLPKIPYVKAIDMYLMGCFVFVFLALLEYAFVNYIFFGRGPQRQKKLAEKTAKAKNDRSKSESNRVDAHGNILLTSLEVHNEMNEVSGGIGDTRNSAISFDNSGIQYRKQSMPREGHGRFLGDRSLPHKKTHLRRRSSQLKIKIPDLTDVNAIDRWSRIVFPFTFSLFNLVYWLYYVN
Sequence (P18507 40-475): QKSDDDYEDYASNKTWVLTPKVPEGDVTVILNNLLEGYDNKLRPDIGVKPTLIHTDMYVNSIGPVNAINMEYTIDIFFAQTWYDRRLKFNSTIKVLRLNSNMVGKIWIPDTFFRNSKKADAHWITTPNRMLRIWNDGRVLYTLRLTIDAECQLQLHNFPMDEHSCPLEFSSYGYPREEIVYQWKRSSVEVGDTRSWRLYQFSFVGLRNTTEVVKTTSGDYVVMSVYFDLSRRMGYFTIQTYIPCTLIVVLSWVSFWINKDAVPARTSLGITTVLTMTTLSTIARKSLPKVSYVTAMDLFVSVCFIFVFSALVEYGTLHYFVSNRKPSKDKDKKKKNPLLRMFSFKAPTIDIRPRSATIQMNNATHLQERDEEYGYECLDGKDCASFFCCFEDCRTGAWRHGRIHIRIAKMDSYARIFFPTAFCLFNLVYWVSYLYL
assay.comment: FLIPR functional assay, α3 GABAA receptor subtype in HEK-293 cells
condition.notes: α3 Binding EC50, FLIPR membrane potential, potentiation of GABA EC20
Procedure: The FLIPR functional assay is used to determine the EC50 at the α1 and α3 GABAA receptor subtypes. A high EC50 for the α1 subtype would indicate a low chance of adverse effects, including sedation, ataxia, and muscle relaxation. […] Membrane potential changes induced by the flux of ions through the receptor were measured as relative fluorescence units (RFU) using the Fluorometric Imaging Plate Reader (FLIPR Tetra®, Molecular Devices) and the FLIPR Membrane Potential Blue Assay kit (Molecular Devices). […]
experimental.readout: EC50 (nM)
# unit: nM | format: bare number

compound: C#Cc1ccc2c(c1)C(c1ccccc1F)=NCc1c(-c3cnco3)ncn1-2 [KRM-II-18B]
experimental.readout: EC50
readout.unit: nM
measured: 11.2
//
compound: C#Cc1ccc2c(c1)C(c1ccccc1)=NCc1c(-c3cnco3)ncn1-2 [KRM-II-82]
experimental.readout: EC50
readout.unit: nM
measured: 32.1

Next, consider the following compound.
Input: What value of EC50 has been recorded for this entry: Fc1ccccc1C1=NCc2c(-c3cnco3)ncn2-c2ccc(Br)cc21 [SH-I-085]
Output: 24.9

Just for reference, patent US10259815B2 is where these values come from.
